The measurements presented in this section are drawn from patent US8106055B2.

Target: human bradykinin 1 receptor (B1R) (Homo sapiens, UniProt P46663)
Construct: expressed in transfected cells; host or cells: CHO K1 cells
Sequence (P46663 whole entry): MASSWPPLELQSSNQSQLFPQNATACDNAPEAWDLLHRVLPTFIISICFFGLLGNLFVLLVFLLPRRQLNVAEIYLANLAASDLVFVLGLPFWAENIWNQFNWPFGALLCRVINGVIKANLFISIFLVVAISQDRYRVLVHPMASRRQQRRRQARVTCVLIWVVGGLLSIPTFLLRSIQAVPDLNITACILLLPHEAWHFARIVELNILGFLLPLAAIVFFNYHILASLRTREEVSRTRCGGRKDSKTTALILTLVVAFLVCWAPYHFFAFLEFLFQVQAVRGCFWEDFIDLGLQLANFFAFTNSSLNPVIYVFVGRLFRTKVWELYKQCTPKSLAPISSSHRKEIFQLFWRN
Experiment: Functional investigation on the human bradykinin 1 receptor (B1R), Ca2+ FLIPR assay in CHO K1 hB1R cells
Format: cell-based
Conditions: CHO-K1, B1R antagonism human; test substance 10 μM; Ca2+ FLIPR, CHO K1 hB1R cells; read-out: B1R Ant. h [10 μM] % Inhibition
Tick 1.0 if inhibition at 10 µM is 80% or greater. Tick 0.0 if inhibition at 10 µM is less than 80%.

CN(C)C(c1ccccc1)C1CCC(NC(=O)CNC(=O)c2nc(-c3cccs3)no2)CC1 (centres unmarked) : 0.0
CN(CCOCC(=O)NC1CCC(C(CCc2ccccc2)N2CCCCC2)CC1)S(=O)(=O)c1c(Cl)cc(Cl)cc1Cl (centres unmarked) : 1.0
COc1cc(C)c(S(=O)(=O)N2CCCCC2COCC(=O)NC2CCC(C(CCc3ccccc3)N3CCOCC3)CC2)c(C)c1 (centres unmarked) : 1.0

IN: Is inhibition at 10 µM at least 80%? Consider COc1cc(C)c(S(=O)(=O)N2CCCCC2COCC(=O)NC2CCC(C(c3ccccc3)N3CCCC3)CC2)c(C)c1 (centres unmarked)
OUT: 1.0

IN: Is inhibition at 10 µM at least 80%? Consider COc1cc(C)c(S(=O)(=O)N(C)CCOCC(=O)NCCC2CCC(C(c3cccc(F)c3)N(C)C)CC2)c(C)c1C (centres unmarked)
OUT: 1.0

IN: Is inhibition at 10 µM at least 80%? Consider CN(C)C(c1ccccc1)C1CCC(CNC(=O)COCCN(C)S(=O)(=O)c2ccc(OC(F)(F)F)cc2)CC1 (centres unmarked)
OUT: 0.0

* * *

Target: serotonin (5-HT) reuptake (Rattus norvegicus)
Construct: synaptosomes are freshly isolated from areas of the rat brain; from tissue; host or cells: rat brain synaptosomes (P2 fraction)
Sequence (P31652 whole entry): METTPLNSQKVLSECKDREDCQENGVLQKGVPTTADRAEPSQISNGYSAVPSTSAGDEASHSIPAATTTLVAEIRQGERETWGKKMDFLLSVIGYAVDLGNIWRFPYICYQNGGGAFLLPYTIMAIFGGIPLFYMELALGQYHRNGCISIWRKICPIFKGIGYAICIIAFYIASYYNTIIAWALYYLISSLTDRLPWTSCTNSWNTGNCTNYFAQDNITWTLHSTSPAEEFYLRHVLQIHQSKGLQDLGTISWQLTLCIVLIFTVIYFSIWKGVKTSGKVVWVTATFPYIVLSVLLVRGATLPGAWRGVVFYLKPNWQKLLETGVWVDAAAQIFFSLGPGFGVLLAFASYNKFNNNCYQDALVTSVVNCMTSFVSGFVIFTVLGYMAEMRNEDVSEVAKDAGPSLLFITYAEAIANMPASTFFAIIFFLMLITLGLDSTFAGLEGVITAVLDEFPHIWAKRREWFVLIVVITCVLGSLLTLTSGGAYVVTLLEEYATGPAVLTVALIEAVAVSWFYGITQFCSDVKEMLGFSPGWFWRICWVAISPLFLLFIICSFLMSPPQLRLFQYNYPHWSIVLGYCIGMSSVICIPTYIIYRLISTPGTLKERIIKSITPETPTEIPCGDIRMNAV
Experiment: Inhibition of serotonin (5HT) reuptake in synaptosomes from rat brain
Format: biochemical
Details: test concentration of 10 μM; read-out: 5-HT (inhibition of reuptake of serotonin, % inhibition)
Recorded measurements of inhibition at 10 µM, one per entry
Just so you know, I need the unit written after the number.

CN(C)C(c1ccccc1)C1CCC(CNC(=O)COC2CCCCC2N(C)S(=O)(=O)c2ccc(Cl)c(Cl)c2)CC1 (stereo not shown) [Example 78] : 86%
COc1ccc(S(=O)(=O)N2CCCCC2COCC(=O)NCC2CCC(C(c3ccccc3)N(C)C)CC2)c(OC)c1 (stereo not shown) [Example 106] : 85%
CN(C)C(c1cccc(F)c1)C1CCC(NC(=O)COCCN(C)S(=O)(=O)c2ccc(Cl)cc2)CC1 (stereo not shown) [Example 196] : 92%

Quick note, inhibition at 10 µM for CN(C)C(c1ccccc1)C1CCC(NC(=O)COCCC2CCN(S(=O)(=O)c3ccccc3)CC2)CC1 (stereo not shown) [Example 124] landed at 89%

* * *

Biological target: human bradykinin 1 receptor (B1R) (Homo sapiens)
Construct: expressed in transfected cells; host or cells: CHO K1 cells
Assay: Functional investigation on the human bradykinin 1 receptor (B1R), Ca2+ FLIPR assay in CHO K1 hB1R cells
Assay type: cell-based
Conditions: CHO-K1, B1R antagonism human; test substance 10 μM; Ca2+ FLIPR, CHO K1 hB1R cells; read-out: B1R Ant. h [10 μM] % Inhibition
Tick TRUE if inhibition at 10 µM is 50% or greater. Tick FALSE if inhibition at 10 µM is less than 50%.

Some solved entries appear below for comparison.
CN(CCOCC(=O)NC1CCC(C(CCc2ccccc2)N2CCCCC2)CC1)S(=O)(=O)c1c(Cl)cccc1Cl (stereo not shown) [Example 665] : TRUE
CN(C)C(c1ccccc1)C1CCC(NC(=O)COCCN(C)S(=O)(=O)c2c(Cl)cc(Cl)cc2Cl)C1 (stereo not shown) [Example 615] : TRUE

IN: Is inhibition at 10 µM at least 50%? Consider O=C(COC1CCCN(S(=O)(=O)c2c(Cl)cc(Cl)cc2Cl)C1)NCC1CCC(C(CCc2ccccc2)N2CCOCC2)CC1 (stereo not shown) [Example 747]
OUT: FALSE

IN: Is inhibition at 10 µM at least 50%? Consider O=C(COCC1CCCCN1S(=O)(=O)c1c(Cl)cc(Cl)cc1Cl)NCC1CCC(C(CCc2ccccc2)N2CCOCC2)CC1 (stereo not shown) [Example 754]
OUT: FALSE
